# assay protocol: viability of HCT116 without oncogenic beta-catenin – human colon tumor cells, pilot screen (AID 823);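 note: 0% = wells killed by 20 µM Hyamine and 100% = untreated DMSO cell wells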
# experimental context: HCT116 beta-catenin knockout viability, CellTiter-Glo, 60 h; at 10 µM; stronger effect = lower value
Records with an inconclusive call do not appear.
Label true when viability is strictly below 90%; otherwise label false.

Record excerpt, results attached:
compound: CC(C)Cc1nnc(NS(=O)(=O)c2ccc(Cl)cc2)s1
label: false
//
compound: CCOC(=O)c1sc(NC(=O)c2noc3c2CCCC3)c(C(=O)OCC)c1C
label: true
//
compound: COc1cccc(C2C(C(N)=O)=C(C)Nc3nc(-c4ccccc4Cl)nn32)c1 (stereo unspecified)
label: true
//
compound: COC(=O)c1cccc(NC(=O)C2COc3ccccc3O2)c1C (stereo unspecified)
label: false

Okay, next one:
Record COC(=O)c1ccc(COc2ccc3c(C)c(C)c(=O)oc3c2)o1 : is its viability strictly below 90%?
false

----------
Overview of recorded viability for various compounds
# assay protocol: H69AR cell proliferation blockers – human, duplicate replicates, primary screen (AID 580);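 note: 100% = mean luminescence of untreated wells and 0% = no signal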
# experimental context: H69AR lung tumor cells viability, ATP luminescence, 72 h; at 10 µM; stronger effect = lower value
Just the number in %, nothing appended.

compound: FC(F)(F)COc1nc(N2CCCCC2)nc(N2CCNCC2)n1
viability (%): 92.3
//
compound: CCC1CCCCN1CCNS(=O)(=O)c1ccc2c(c1)oc(=O)n2C (configuration not stated)
viability (%): 85.2
//
compound: CCC(=O)c1cc(F)c(N2CCN(C(=O)c3ccco3)CC2)cc1C
viability (%): 87.9
//
compound: O=S(=O)(NCC(O)COCc1ccco1)c1cccs1 (configuration not stated)
viability (%): 83.7

Give recorded viability. O=C(O)C1CC=CCC1C(=O)Nc1cccc(F)c1 (configuration not stated)
87.1

# return recorded viability for input CCCOc1ccc2ccccc2c1/C=N/n1cnnc1
72.3

Respond only with viability recorded for CCOC(=O)c1sc2nc(NC(=O)COc3ccccc3)sc2c1C
69.4

----------
Examples of compounds with documented growth inhibition follow.
# assay protocol: S. cerevisiae growth inhibition in restrictive medium, OD615, pilot screen, restrictive growth control, yeast lifespan reduction project (AID 706);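 note: modified DeaD lifespan yeast strain shifted to restrictive glucose medium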
# experimental context: OD615, 48 h, at 10 µM, stronger effect = higher value
Could you give me the number in %? Just the number is fine.

Given the compound CCN(c1cccc(C)c1)S(=O)(=O)c1cccc2nsnc12 , write its reported growth inhibition.
-20.3

Please indicate growth inhibition recorded for Cc1cc(C)nc(SCc2csc(N)n2)n1
14.9

Consider the compound COc1ccc(-n2c(Cc3cccn3C)nnc2SCC(=O)Nc2ccc3c(c2)OCCO3)cc1 and give its recorded growth inhibition.
8.29

----------
# assay protocol: S. cerevisiae growth inhibition in permissive medium (OD615), pilot counter-assay for S. cerevisiae lifespan shortening project, permissive growth control (AID 705)
# experimental context: OD615, 24 h, at 10 µM, stronger effect = higher value
# binarize growth inhibition: threshold -10% inclusive, high side TRUE, low side FALSE

Field: example entries. Status: answers known.
molecule: O=C(O)CCC(=O)Nc1ccc(-c2nnc(-c3ccco3)o2)cc1
label: FALSE

molecule: COc1cccc(C2c3c(oc4ccc(F)cc4c3=O)C(=O)N2CCCN2CCOCC2)c1 (stereo unspecified)
label: TRUE

molecule: O=C(C1CC1)N1CCc2cc(Br)cc(S(=O)(=O)N3CCOCC3)c21
label: FALSE

molecule: CCSC1=C(C#N)C(c2cccc(O)c2)CC(=O)N1 (stereo unspecified)
label: TRUE

molecule: COc1ccccc1CNC(=O)C1CCC(CNc2c(N3CCOCC3)c(=O)c2=O)CC1 (stereo unspecified)
label: TRUE

Would you kindly look at the next entry?
Hello, I need to know if COc1ccc(S(=O)(=O)Cc2ccc(C(=O)N3CCOCC3)o2)cc1 has measured growth inhibition not below -10%. Thanks!
TRUE

----------
# assay protocol: MRP1 drug-resistance reversers in H69AR cells – cell-based, doxorubicin co-treatment, pilot screen (AID 601)
# experimental context: H69AR cells, CellTiter-Glo, 72 h; compound alone cytotoxicity; at 10 µM
Reported viability values for a set of molecules
Kindly answer with a numeric value in %, unit omitted.

Identify measured viability associated with Cn1c(=O)oc2cc(S(=O)(=O)NC3CCN(Cc4ccccc4)CC3)ccc21
108

Supply reported viability belonging to this molecule: O=C(CCn1[nH]c(=O)c2ccccc2c1=O)NCCO
89.3

Please list viability recorded for the molecule COC(=O)c1cc(=O)n(Cc2ccc3c(c2)OCO3)c(=Nc2ccccc2)s1
38.1

For the molecule COc1cccc2cc(C(=O)Nc3cccnc3N3CCOCC3)c(=O)oc12 , give its measured viability value.
94.3

----------
# assay protocol: RAM signaling pathway blockade in yeast – S. cerevisiae, Pdr1DBD-CYC8 efflux-inhibited sensitized strain, primary screen (AID 1298);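 note: 0% = DMSO untreated cells without growth and 100% = 10 µM 1-NA-PP1 full growth; higher means more yeast growth rescued from 5-FOA killing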
# experimental context: S. cerevisiae cbk1-as DSE1-URA3 strain, 5-FOA growth OD615, 2 d; at 50 µM; stronger effect = higher value
Listing: RAM network inhibition of selected compounds
Use % as the unit, but write only the number.

Guide cases for RAM network inhibition, answers given:
compound: Cc1oc2c(O)c(O)ccc2c(=O)c1-c1ccccc1
RAM network inhibition / %: -0.2

compound: Cc1ccccc1NC(=O)C1CCCN(S(=O)(=O)c2cnc[nH]2)C1 (stereo not drawn)
RAM network inhibition / %: 2.9

Identify RAM network inhibition associated with the compound CC(C)(C)SCCNC(=O)COc1ccccc1
2.63

Give the measured RAM network inhibition for CCCOC(=O)CC1C(=O)NCCN1Cc1ccccc1C (stereo not drawn)
7.95

Please look at this compound and report its RAM network inhibition: COC(=O)C(C)Sc1nnc2n(-c3cccc(C)c3)c(=O)c3c4c(sc3n12)CCCC4 (stereo not drawn)
1.84

Consider the compound O=C(Nc1ccc(F)cc1)C1CCC(N2C(=O)c3ccccc3C2=O)CC1 (stereo not drawn) . State its measured RAM network inhibition.
12.4

Assign RAM network inhibition to the following record: O=c1oc2c3c4c(cc2cc1-c1nc2ccccc2[nH]1)CCCN4CCC3
2.41

Given O=C(NCc1ccco1)C1CCN(c2ccc(N3CCOCC3)nn2)CC1 , respond with its RAM network inhibition.
4.7

# return recorded RAM network inhibition for input Cc1onc(-c2ccccc2Cl)c1C(=O)Nc1ccc(S(=O)(=O)N2CCCC2)cc1
4.75

Consider the compound CCOc1ccc(N(CC(=O)Nc2cccc(Cl)c2)S(=O)(=O)c2c(C)noc2C)cc1 . State its measured RAM network inhibition.
12.6

----------
# assay protocol: MRP1 drug-resistance reversers in H69AR cells – cell-based, doxorubicin co-treatment, pilot screen (AID 601)
# experimental context: H69AR cells + 2 uM doxorubicin, CellTiter-Glo, 72 h; at 10 µM
The source made the active and inactive calls.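 The calls were made as follows: active = viability loss from added drug above about 55%, and viability with drug at most 40%, in both replicates (limit read from the data, passing the limit was not always enough); inconclusive = both conditions met in only one replicate; inactive = neither replicate meets both conditions.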
# output must be one of TRUE = active, FALSE = inactive

molecule: O=C(Nc1cccnc1)Nc1ccccn1
label: FALSE
//
molecule: CCOc1cc(C2C3=C(CCCC3=O)N(C)C3=C2C(=O)CCC3)cc(Cl)c1O
label: FALSE
//
molecule: Cn1c(=O)c2c(nc3sccn32)n(C)c1=O
label: FALSE
//
molecule: COc1cccc(C2C(C(N)=O)=C(C)Nc3nc(CCCO)nn32)c1OC (configuration not stated)
label: FALSE
//
molecule: c1ccc2c(c1)ccc1nnc(-c3ccc4c(c3)OCO4)n12
label: FALSE

GET /call?item= CCC(=O)Oc1ccc2c(C)cc(=O)oc2c1C returns the recorded outcome of this test.
FALSE

Please indicate how the test categorized CCCN1CC23C=CC(O2)C(C(=O)O)C3C1=O (configuration not stated) .
FALSE

What did the test return for COc1ccc(OCCCC(=O)Nc2nncs2)cc1 ?
FALSE

Record lookup: outcome of this test for O=C(Nn1cnnc1)C1Cc2ccccc2CN1S(=O)(=O)c1ccc(F)cc1 (configuration not stated) ?
FALSE

Hi, sorry to bother you, what did the test record for COCCOC(=O)C1=C(C)OC(N)=C(C#N)C1c1ccc2c(c1)OCO2 (configuration not stated) ?
FALSE

Could you kindly confirm the outcome this assay logged for COC(=O)C(C)Sc1nnc2n(-c3cccc(C)c3)c(=O)c3c4c(sc3n12)CCCC4 (configuration not stated) ?
TRUE

Outcome logged for CCCC(=O)C1=C(N(C)c2ccccc2)CC(C)(C)C(C(=O)OC)C1=O (configuration not stated) in this assay:
FALSE

Could you check what this test reported for Cn1cnc2cc(NC(=O)c3ccc(Cl)cc3)ccc21 ?
FALSE

For COc1ccccc1NC(=O)N1CCN(c2cccc(C(F)(F)F)c2)CC1 , what call appears in the results of this test?
FALSE

Would you mind telling me which call this test gave Cc1ccc(C(=O)OCC(=O)Nc2ccc3c(c2)OCO3)o1 ?
FALSE

// return assay outcome for CC(=O)NC(C)C(=O)OCC(=O)Nc1ccc(Br)cc1 (configuration not stated)
FALSE

GET /call?item= Cc1c(C)n(C)c2ccc(C(=O)NCc3cccs3)cc12 returns the recorded outcome of this test.
FALSE
